tested on: Colon cancer organoid; assay: Identification of compartment-specific drug sensitivities in O20 CRC organoid-stroma F20 CAF co-cultures. Organoid is transduced with Lucferase2-P2A-EGFP lentivirus, fibroblast with Renilla-dsRed lentivirus. Dual-Glo Luciferase assay is used to report viability data.; assay type: functional, Homo sapiens; set-up: dose or concentration left out as unconfirmed; conditions: Transduced with Lucferase2-P2A-EGFP lentivirus
Non-standard residues stand in square brackets, D forms with d. Residues, ends and D or L forms follow the SMILES beside them. Arg(Me) = CNC(=N)NCCC[C@H](N)C(=O)O; d3Pal = N[C@H](Cc1cccnc1)C(=O)O; azaGly = NNC(=O)O
Reported Cell Viability values are given for each entry in this list.
Enter your answer as a number in %; do not include the unit.

These recorded examples may help you get a feel for the data.
[[record]]
compound = "Cc1nnc2c3ccccc3c(N[C@@H](C)[C@H](c3ccccc3)N(C)C)nn12"
endpoint_label = "Cell Viability"
display_unit = "%"
data_value = 82.8594

[[record]]
compound = "Cc1cc(C)cc(C(=O)NOCCCCCC(=O)NO)c1"
endpoint_label = "Cell Viability"
display_unit = "%"
data_value = 15.4081

[[record]]
compound = "CCCCN(Cc1ccccc1)C(=O)c1ccc(S(=O)(=O)Nc2ccccc2)cc1"
endpoint_label = "Cell Viability"
display_unit = "%"
data_value = 74.981

[[record]]
compound = "O=C(NOCC1CC1)c1ccc(F)c(F)c1Nc1ccc(I)cc1Cl"
endpoint_label = "Cell Viability"
display_unit = "%"
data_value = 44.1491


Recorded Cell Viability for CC(C)S(=O)(=O)c1ccc2nccc(Nc3ccc4scnc4c3)c2c1 , please?
147.82

Recorded Cell Viability for COc1cc2c(cc1NS(=O)(=O)c1ccc(Br)cc1C)n(C)c(=O)n2C , please?
86.7229

Recorded Cell Viability for Cc1sc2c(c1C)C(c1ccc(Cl)cc1)=N[C@@H](CC(=O)NCCCCCCCCNC(=O)COc1cccc3c1C(=O)N(C1CCC(=O)NC1=O)C3=O)c1nnc(C)n1-2 (some centres not stated) , please?
2.01

Recorded Cell Viability for CN1CCN(C(=O)C(C)(C)c2ccc(C(=O)Nc3cn4cc(-c5ccncc5)ccc4n3)cc2)CC1 , please?
17.3495

Recorded Cell Viability for CCOC(=O)Nc1cc(-c2ccc(C)c(NS(C)(=O)=O)c2)nn2c(C)nnc12 , please?
38.74

Recorded Cell Viability for O=C(CNCc1cc2ccccc2[nH]1)N[C@H]1CC[C@@H](c2nc3ccccc3[nH]2)CC1 , please?
100.403

Recorded Cell Viability for CNC(=N)NCCC[C@H](NC(=O)[C@H](CC(C)C)NC(=O)NNC(=O)[C@H](Cc1ccccc1)NC(=O)[C@H](CO)NC(=O)[C@H](CC(N)=O)NC(=O)[C@@H](Cc1cccnc1)NC(=O)[C@H](N)Cc1ccc(O)cc1)C(=O)NCC(N)=O [KISS1-543] (H-[dY][d3Pal]NSF[azaGly]L[Arg(Me)]G-NH2) , please?
101.104

Recorded Cell Viability for CC[C@H](CO)Nc1nc(NCc2ccccc2)c2ncn(C(C)C)c2n1 , please?
126.177

Recorded Cell Viability for C[C@H](NC(=O)Nc1cc2[nH]ncc2c(CO)n1)c1ccccn1 , please?
108.541

Recorded Cell Viability for Nc1ccc(C(=O)Nc2cccc(-c3nc(N4CCOCC4)c4oc5ncccc5c4n3)c2)cn1 , please?
141.773

Recorded Cell Viability for COc1ccccc1-c1cc(N2CCN(C(=O)OC(C)(C)C)CC2)c(N)nn1 , please?
123.55

Recorded Cell Viability for CSc1cccnc1N1CCN(Cc2nc3ccccc3[nH]2)CC1 , please?
125.432

Recorded Cell Viability for Cc1ccc(-c2cnc([C@@]3(O)CC[C@H](C(=O)O)C(C)(C)C3)s2)cc1Nc1cccc(C(F)(F)F)n1 , please?
106.503
